# target_entity: Histamine H3 receptor (Cavia porcellus) (UniProt Q9JI35)
# Sequence (Q9JI35 whole entry): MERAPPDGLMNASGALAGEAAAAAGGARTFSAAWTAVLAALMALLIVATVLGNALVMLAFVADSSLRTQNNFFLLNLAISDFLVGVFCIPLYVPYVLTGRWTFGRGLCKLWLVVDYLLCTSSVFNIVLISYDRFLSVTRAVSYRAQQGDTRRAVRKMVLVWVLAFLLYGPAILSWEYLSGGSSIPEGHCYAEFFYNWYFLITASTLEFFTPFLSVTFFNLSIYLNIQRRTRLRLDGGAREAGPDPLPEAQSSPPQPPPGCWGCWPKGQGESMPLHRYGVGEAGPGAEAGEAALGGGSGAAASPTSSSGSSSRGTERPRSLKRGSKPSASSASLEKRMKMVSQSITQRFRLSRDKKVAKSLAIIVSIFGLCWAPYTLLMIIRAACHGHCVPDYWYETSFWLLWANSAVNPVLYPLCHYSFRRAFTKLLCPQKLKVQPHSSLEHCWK
# test_protocol: Antagonist activity at histamine H3 receptor in electrically-stimulated guinea pig ileum assessed as inhibition of (R)-alpha-methylhistamine-induced twitch contraction in presence of 1 uM mepyramine
# Type: functional, tissue-based
# maps each entry to its pKb
Reply with the value as a number alone.

Answered examples (5):
[
  {
    "molecule": "CCN(CC)Cc1ccc(-c2ccc(CN3CCCCC3)cc2)cc1",
    "pKb": 9.41
  },
  {
    "molecule": "CN(Cc1ccc(-c2ccc(CN(C)C3CCCCC3)cc2)cc1)C1CCCCC1",
    "pKb": 7.45
  },
  {
    "molecule": "N#Cc1ccc(OCc2ccc(-c3ccc(CN4CCCCC4)cc3)cc2)cc1",
    "pKb": 7.27
  },
  {
    "molecule": "CN(C)Cc1ccc(-c2ccc(CN(C)C)cc2)cc1",
    "pKb": 8.46
  },
  {
    "molecule": "CCCN(CCC)Cc1ccc(-c2ccc(CC(=O)N3CCCCC3)cc2)cc1",
    "pKb": 7.24
  }
]

pKb lookup needed for CN(Cc1ccccc1)Cc1ccc(-c2ccc(CN3CCCCC3)cc2)cc1 , thanks.
7.34

Same thing, different molecule: c1cc(-c2ccc(CN3CCCCC3)cc2)ccc1CCN1CCCCC1
8.73

Same thing, different molecule: CCCN(CCC)Cc1ccc(-c2ccc(CN(CCC)CCC)cc2)cc1
8.78

Same thing, different molecule: CCN(CC)Cc1ccc(-c2ccc(CN(CC)CC)cc2)cc1
9.34

Same thing, different molecule: CN(Cc1ccc(-c2ccc(CN3CCCCC3)cc2)cc1)C1CCCCC1
8.46

Same thing, different molecule: CC1CCN(Cc2ccc(-c3ccc(CN4CCC(C)CC4)cc3)cc2)CC1
7.3

Same thing, different molecule: CCCN(CCC)C(=O)Cc1ccc(-c2ccc(CN3CCCCC3)cc2)cc1
8
